system: SK-MEL-5 melanoma; experiment: NCI tumour cell line growth inhibition, 48 h
QUANTITY MEASURED: log10 of TGI (log10 of the value in µM)

{"COMPOUND": "Oc1ccc(C(c2ccccc2)(c2ccccc2)c2ccccc2)cc1", "log10 of TGI": 1.51}
{"COMPOUND": "COc1ccc(CN2C(=O)/C(=C\\c3cc(OC)c(OC)c(OC)c3)c3cc(OC)ccc32)cc1", "log10 of TGI": 0.97}
{"COMPOUND": "CC1=C(/C=C/C(C)=C/C=C/C(C)=C/C(=O)OCC2OC(n3cc(F)c(=O)[nH]c3=O)CC2OC(=O)/C=C(C)/C=C/C=C(C)/C=C/C2=C(C)CCCC2(C)C)C(C)(C)CCC1 (configuration not stated)", "log10 of TGI": 1.30}
{"COMPOUND": "Nc1ccccc1C#CC#Cc1ccccc1N", "log10 of TGI": 1.25}
{"COMPOUND": "O=C(Nc1ccc(-c2nc3cc4ccccc4cc3[nH]2)cc1)c1cccc(Br)c1", "log10 of TGI": 1.33}
{"COMPOUND": "CC(C)(C)[Si](C)(C)OCC1CCC(n2cnc3c(NC(=O)c4ccccc4)ncnc32)O1 (configuration not stated)", "log10 of TGI": 1.37}
{"COMPOUND": "CCOC(=O)c1cc2cc(N(C(C)=O)C(C)=O)ccc2s1", "log10 of TGI": 1.81}
{"COMPOUND": "O=[N+]([O-])c1cnc(Sc2ccncn2)c([N+](=O)[O-])c1", "log10 of TGI": 1.45}
{"COMPOUND": "COc1ccc(OC)c(C2CCc3nc4nc(N)nc(N)c4cc3C2)c1 (configuration not stated)", "log10 of TGI": 1.27}
{"COMPOUND": "CN(C)c1nc(N(C)C)nc(N(C)C)n1", "log10 of TGI": 2.13}
{"COMPOUND": "C=C1C(=O)O[C@H]2[C@H]1CC/C(COC(=O)C(=O)c1c[nH]c3ccccc13)=C\\CC[C@@]1(C)O[C@@H]21", "log10 of TGI": 0.62}
{"COMPOUND": "CN1C2CCC1CC(OC(c1ccccc1)c1ccccc1)C2 (configuration not stated)", "log10 of TGI": 1.46}
{"COMPOUND": "CC(C)(C)[OH+][O-].[O-]c1ccc(Cl)cc1C=Nc1ccc(Cl)cc1[O-].[O]=[V]", "log10 of TGI": 1.42}
{"COMPOUND": "CN(C)CCCNc1c(O)c2c(c(O)c1Cl)C(=O)C=CC2=O", "log10 of TGI": 0.45}
{"COMPOUND": "S=c1[nH]nc(COc2ccc3c(c2)CCCC3)n1/N=C/c1ccc(Cl)cc1", "log10 of TGI": 1.47}

Data provenance is PubChem BioAssay (NCI).
